# Tested on: UO-31
# PROCEDURE_DETAILS: NCI-60 SRB screening (one-dose and five-dose)
# Assay type: cell-based, human
# CONDITIONS: UO-31, 10 μM, 48 h
Field: Growth Percent. Provide a value for each of the compounds that follow.
The figure you give is taken to be in %; do not add the unit.

# Growth Percent of C[C@H]1[C@@H]2[C@H]3CC[C@@H]4[C@@]5(C)CC[C@H](O)C(C)(C)[C@@H]5CC[C@@]4(C)[C@]3(C)CC[C@]23CO[C@@]1(C)C(C(=O)/C=C/c1cccnc1)C3 (stereo partly shown) = 58.69

# Growth Percent of C[C@H]1[C@@H]2[C@H]3CC[C@@H]4[C@@]5(C)C/C(=C\c6cccnc6)C(=O)C(C)(C)[C@@H]5CC[C@@]4(C)[C@]3(C)CC[C@]23CO[C@@]1(C)[C@@H](C(=O)/C=C/c1cccnc1)C3 = −97.34

# Growth Percent of COC(=O)[C@]12CC[C@@H](C(=O)/C=C/c3cccnc3)[C@@H]1[C@H]1CC[C@@H]3[C@@]4(C)C/C(=C\c5cccnc5)C(=O)C(C)(C)[C@@H]4CC[C@@]3(C)[C@]1(C)CC2 = −100.00

# Growth Percent of COC(=O)[C@]12CC[C@@H](C(C)=O)[C@@H]1[C@H]1CC[C@@H]3[C@@]4(C)C/C(=C\c5cccnc5)C(=O)C(C)(C)[C@@H]4CC[C@@]3(C)[C@]1(C)CC2 = 56.64

====

# System: DU-145
# PROCEDURE_DETAILS: NCI-60 SRB screening (one-dose and five-dose)
# Type: cell-based, human
# CONDITIONS: DU-145, 10 μM, 48 h
READOUT_LABEL: Growth Percent (%)
The figure you give is taken to be in %; do not add the unit.

# Growth Percent of CC(=O)[C@H]1C[C@]23CC[C@]4(C)[C@H](CC[C@@H]5[C@@]6(C)CCC(=O)C(C)(C)[C@@H]6CC[C@]54C)[C@H]2[C@H](C)[C@@]1(C)OC3 [Compound 2] = 98.96

# Growth Percent of COC(=O)[C@]12CC[C@@H](C(=O)/C=C/c3cccnc3)[C@@H]1[C@H]1CC[C@@H]3[C@@]4(C)C/C(=C\c5cccnc5)C(=O)C(C)(C)[C@@H]4CC[C@@]3(C)[C@]1(C)CC2 [Compound 7] = −67.84

# Growth Percent of C[C@H]1[C@@H]2[C@H]3CC[C@@H]4[C@@]5(C)CC[C@H](O)C(C)(C)[C@@H]5CC[C@@]4(C)[C@]3(C)CC[C@]23CO[C@@]1(C)[C@@H](C(=O)/C=C/c1ccco1)C3 [Compound 5] = 102.22

# Growth Percent of C[C@H]1[C@@H]2[C@H]3CC[C@@H]4[C@@]5(C)CC[C@H](O)C(C)(C)[C@@H]5CC[C@@]4(C)[C@]3(C)CC[C@]23CO[C@@]1(C)C(C(=O)/C=C/c1cccnc1)C3 (stereo partly shown) [Compound 4] = 73.94

# Growth Percent of CC(=O)O[C@H]1CC[C@]2(C)[C@H]3CC[C@@H]4[C@H]5[C@H](C)[C@@]6(C)OC[C@]5(CC[C@@]4(C)[C@]3(C)CC[C@H]2C1(C)C)CC6C(C)=O (stereo partly shown) [Compound 1] = 99.41

# Growth Percent of C[C@H]1[C@@H]2[C@H]3CC[C@@H]4[C@@]5(C)C/C(=C\c6cccnc6)C(=O)C(C)(C)[C@@H]5CC[C@@]4(C)[C@]3(C)CC[C@]23CO[C@@]1(C)[C@@H](C(=O)/C=C/c1cccnc1)C3 [Compound 6] = −28.80

# Growth Percent of COC(=O)[C@]12CC[C@@H](C(C)=O)[C@@H]1[C@H]1CC[C@@H]3[C@@]4(C)C/C(=C\c5cccnc5)C(=O)C(C)(C)[C@@H]4CC[C@@]3(C)[C@]1(C)CC2 [Compound 8] = 68.80

====

# Tested on: A498
# PROCEDURE_DETAILS: NCI-60 SRB screening (one-dose and five-dose)
# Assay type: cell-based, human
# CONDITIONS: A498, 10 μM, 48 h
# Experimental: The compounds were added at a single concentration and the cell cultures were incubated for 48 h. The end point determinations were made with a protein binding dye, sulforhodamine B (SRB). […] The percentage of growth was evaluated spectrophotometrically versus controls not treated with test agents after 48-h exposure and using SRB protein assay to estimate cell viability or growth. […]
Field: Growth Percent. Provide a value for each of the compounds that follow.
The figure you give is taken to be in %; do not add the unit.

# Growth Percent of C[C@H]1[C@@H]2[C@H]3CC[C@@H]4[C@@]5(C)C/C(=C\c6cccnc6)C(=O)C(C)(C)[C@@H]5CC[C@@]4(C)[C@]3(C)CC[C@]23CO[C@@]1(C)[C@@H](C(=O)/C=C/c1cccnc1)C3 [Compound 6] = −59.07

# Growth Percent of COC(=O)[C@]12CC[C@@H](C(C)=O)[C@@H]1[C@H]1CC[C@@H]3[C@@]4(C)C/C(=C\c5cccnc5)C(=O)C(C)(C)[C@@H]4CC[C@@]3(C)[C@]1(C)CC2 [Compound 8] = 80.56

# Growth Percent of C[C@H]1[C@@H]2[C@H]3CC[C@@H]4[C@@]5(C)CC[C@H](O)C(C)(C)[C@@H]5CC[C@@]4(C)[C@]3(C)CC[C@]23CO[C@@]1(C)C(C(=O)/C=C/c1cccnc1)C3 (stereo partly drawn) [Compound 4] = 72.89

# Growth Percent of COC(=O)[C@]12CC[C@@H](C(=O)/C=C/c3cccnc3)[C@@H]1[C@H]1CC[C@@H]3[C@@]4(C)C/C(=C\c5cccnc5)C(=O)C(C)(C)[C@@H]4CC[C@@]3(C)[C@]1(C)CC2 [Compound 7] = −91.17

# Growth Percent of C[C@H]1[C@@H]2[C@H]3CC[C@@H]4[C@@]5(C)CC[C@H](O)C(C)(C)[C@@H]5CC[C@@]4(C)[C@]3(C)CC[C@]23CO[C@@]1(C)[C@@H](C(=O)/C=C/c1ccco1)C3 [Compound 5] = 96.19

# Growth Percent of CC(=O)[C@H]1C[C@]23CC[C@]4(C)[C@H](CC[C@@H]5[C@@]6(C)CCC(=O)C(C)(C)[C@@H]6CC[C@]54C)[C@H]2[C@H](C)[C@@]1(C)OC3 [Compound 2] = 67.96

====

Field: Growth Percent. Provide a value for each of the compounds that follow.
# Tested on: UO-31
# PROCEDURE_DETAILS: NCI-60 SRB screening (one-dose and five-dose)
# Assay type: cell-based, human
# CONDITIONS: UO-31, 10 μM, 48 h
The figure you give is taken to be in %; do not add the unit.

# Growth Percent of CC(=O)O[C@H]1CC[C@]2(C)[C@H]3CC[C@@H]4[C@H]5[C@H](C)[C@@]6(C)OC[C@]5(CC[C@@]4(C)[C@]3(C)CC[C@H]2C1(C)C)CC6C(C)=O (stereo partly drawn) = 95.19

# Growth Percent of CC(=O)[C@H]1C[C@]23CC[C@]4(C)[C@H](CC[C@@H]5[C@@]6(C)CCC(=O)C(C)(C)[C@@H]6CC[C@]54C)[C@H]2[C@H](C)[C@@]1(C)OC3 = 66.99

# Growth Percent of C[C@H]1[C@@H]2[C@H]3CC[C@@H]4[C@@]5(C)CC[C@H](O)C(C)(C)[C@@H]5CC[C@@]4(C)[C@]3(C)CC[C@]23CO[C@@]1(C)[C@@H](C(=O)/C=C/c1ccco1)C3 = 77.02

====

# Tested on: BT-549
# PROCEDURE_DETAILS: NCI-60 SRB screening (one-dose and five-dose)
# Format: cell-based, human
# CONDITIONS: BT-549, 10 μM, 48 h
Response key: True means Growth Percent >= 60%; False means Growth Percent < 60%.

Inquiry: // inclusive: Growth Percent at least 60%? input: COC(=O)[C@]12CC[C@@H](C(=O)/C=C/c3cccnc3)[C@@H]1[C@H]1CC[C@@H]3[C@@]4(C)C/C(=C\c5cccnc5)C(=O)C(C)(C)[C@@H]4CC[C@@]3(C)[C@]1(C)CC2 [Compound 7]
Reply text: False

Inquiry: // inclusive: Growth Percent at least 60%? input: C[C@H]1[C@@H]2[C@H]3CC[C@@H]4[C@@]5(C)C/C(=C\c6cccnc6)C(=O)C(C)(C)[C@@H]5CC[C@@]4(C)[C@]3(C)CC[C@]23CO[C@@]1(C)[C@@H](C(=O)/C=C/c1cccnc1)C3 [Compound 6]
Reply text: False

Inquiry: // inclusive: Growth Percent at least 60%? input: CC(=O)O[C@H]1CC[C@]2(C)[C@H]3CC[C@@H]4[C@H]5[C@H](C)[C@@]6(C)OC[C@]5(CC[C@@]4(C)[C@]3(C)CC[C@H]2C1(C)C)CC6C(C)=O (stereo partly drawn) [Compound 1]
Reply text: True

Inquiry: // inclusive: Growth Percent at least 60%? input: C[C@H]1[C@@H]2[C@H]3CC[C@@H]4[C@@]5(C)CC[C@H](O)C(C)(C)[C@@H]5CC[C@@]4(C)[C@]3(C)CC[C@]23CO[C@@]1(C)C(C(=O)/C=C/c1cccnc1)C3 (stereo partly drawn) [Compound 4]
Reply text: False

Inquiry: // inclusive: Growth Percent at least 60%? input: C[C@H]1[C@@H]2[C@H]3CC[C@@H]4[C@@]5(C)CC[C@H](O)C(C)(C)[C@@H]5CC[C@@]4(C)[C@]3(C)CC[C@]23CO[C@@]1(C)[C@@H](C(=O)/C=C/c1ccco1)C3 [Compound 5]
Reply text: True

Inquiry: // inclusive: Growth Percent at least 60%? input: COC(=O)[C@]12CC[C@@H](C(C)=O)[C@@H]1[C@H]1CC[C@@H]3[C@@]4(C)C/C(=C\c5cccnc5)C(=O)C(C)(C)[C@@H]4CC[C@@]3(C)[C@]1(C)CC2 [Compound 8]
Reply text: False
